method description: melting temperature; fluorescence melt of hairpins on a sequencing array, two-state fit, raised by 9.35 °C to match UV melts
conditions: sodium 0.088 M
Here, each record is paired with measured Tm data.
Reply with just the number (in °C).

# count of solved cases: 10
Would you mind telling me what Tm value was observed for GAGTGCACGAAAGTGCTC (((..(((....)))))) ?
37.4

Would you mind telling me what Tm value was observed for GGGTTTACGAAAGTACCC (((..(((....)))))) ?
41.2

Would you mind telling me what Tm value was observed for GGAGACGAAAGTCGATCC ((((((....)))..))) ?
44

Would you mind telling me what Tm value was observed for CATGAGAAATCATG (((((....))))) ?
43.9

Would you mind telling me what Tm value was observed for GATCGTCCATACGATC ((((((....)))))) ?
54.8

Would you mind telling me what Tm value was observed for GCCTTCGGAAACGGAGGC ((((.((....)).)))) ?
58.6

Would you mind telling me what Tm value was observed for GGTAGTCGAAAGACCACC (((.(((....))).))) ?
45.7

Would you mind telling me what Tm value was observed for GATCTATACTAGATC ((((((...)))))) ?
40.6

Would you mind telling me what Tm value was observed for GTTGTCGAAAGACCAAAC ((((((....)))..))) ?
26

Would you mind telling me what Tm value was observed for GATTGCGGAAACGCAACC (.(((((....))))).) ?
45.5

Further cases:
Would you mind telling me what Tm value was observed for GCCCTTCGAAAGAAGGC (((.(((....)))))) ?
52.9

Would you mind telling me what Tm value was observed for GTATCCGAAAGGAGATAC ((((((....)))..))) ?
34.3

Would you mind telling me what Tm value was observed for TTGAGGAAACTCAA (((((....))))) ?
35.3

Would you mind telling me what Tm value was observed for GTCTGCTCGAAAGAGGAC (((..(((....)))))) ?
31.3

====

Here, each record is paired with measured folding enthalpy data.
method description: folding enthalpy; higher = less favourable; fluorescence melt of hairpins on a sequencing array, two-state fit
conditions: sodium 0.088 M
Reply with just the number (in kJ/mol).

Would you mind telling me what folding enthalpy value was observed for GGAATGCGAAAGCATCC (((.(((....)))))) ?
-66.4

Would you mind telling me what folding enthalpy value was observed for GCGTCATGACGC ((((....)))) ?
-129

Would you mind telling me what folding enthalpy value was observed for CGTTGCGGAAACGCGACG (((.(((....))).))) ?
-128

Would you mind telling me what folding enthalpy value was observed for GATCGTACAGACGATC ((((((....)))))) ?
-226

Would you mind telling me what folding enthalpy value was observed for GTCAAAGAAATTTGAC ((((((....)))))) ?
-122

Further cases:
Would you mind telling me what folding enthalpy value was observed for GCGATTAGTCGC ((((....)))) ?
-112

Would you mind telling me what folding enthalpy value was observed for GATCCTTGAAGGATC ((((((...)))))) ?
-162

Would you mind telling me what folding enthalpy value was observed for GCGACTCCTCGC ((((....)))) ?
-100

Would you mind telling me what folding enthalpy value was observed for GTTATAGGAAACTGTAAC ((((.((....)).)))) ?
-114

Would you mind telling me what folding enthalpy value was observed for GACGCTGGAAACAGCATC ((.((((....)))).)) ?
-52.9

Would you mind telling me what folding enthalpy value was observed for GCGGCAGGAAACCGCCAC (.(((.(....).))).) ?
-52.9

Would you mind telling me what folding enthalpy value was observed for GATACCGAAAGGTGGATC ((((((....)))..))) ?
-54.4

Would you mind telling me what folding enthalpy value was observed for GATCTCAAGTGAGATC ((((((....)))))) ?
-144

Would you mind telling me what folding enthalpy value was observed for GTCCGCGAAAGCGTGAC ((((((....))).))) ?
-82.6

Would you mind telling me what folding enthalpy value was observed for GATCGCTTGGCGATC ((((((...)))))) ?
-173

Would you mind telling me what folding enthalpy value was observed for GATCCCAATGGGATC ((((((...)))))) ?
-136

Would you mind telling me what folding enthalpy value was observed for GACACCGAAAGGTGGTC ((((((....))).))) ?
-53.7

Would you mind telling me what folding enthalpy value was observed for GACGAACGAAAGTTTGTC (((.(((....))).))) ?
-183

Would you mind telling me what folding enthalpy value was observed for GCCTAGCGAAAGCTGGC (((.(((....)))))) ?
-122

Would you mind telling me what folding enthalpy value was observed for GGATCTCCGAAAGGATCC (((..(((....)))))) ?
-99.4

Would you mind telling me what folding enthalpy value was observed for GATCTGGGCACAGATC ((((((....)))))) ?
-167

Would you mind telling me what folding enthalpy value was observed for GCTGACGAAAGTCAAAGC ((((((....)))..))) ?
-74.9

Would you mind telling me what folding enthalpy value was observed for GATCTAGTAATAGATC ((((((....)))))) ?
-150

Would you mind telling me what folding enthalpy value was observed for GCTACTCGAAAGAGGAGC (((.(((....))).))) ?
-157

Would you mind telling me what folding enthalpy value was observed for CGTTCGGAAACGAAGACG ((((((....)))..))) ?
-110

Would you mind telling me what folding enthalpy value was observed for GTCTAACCGAAAGGTGAC (((..(((....)))))) ?
-73.6

All figures here come from the array DNA melting data of Ke et al. (doi:10.1101/2024.01.08.574731).
